- testedTarget: HLA-A*31:01
- assayProcedure: IEDB peptide-MHC binding, purified MHC/direct/fluorescence; filed as Kd, often an IC50 or EC50 that approximates it; bounds were set here for any values at or beyond the usual limits of such assays
- experimentalSetup: source organism: Pseudomonas putida
experimentalReadout: Kd (µM)
Value expressed in µM; do not type the unit.

Field request: Kd | item: HTAEIQQFF 1.15

----------
- testedTarget: HLA-A*26:02
- assayProcedure: IEDB peptide-MHC binding, purified MHC/direct/fluorescence; filed as Kd, often an IC50 or EC50 that approximates it; bounds were set here for any values at or beyond the usual limits of such assays
- experimentalSetup: source organism: Entamoeba histolytica
pKd: −log10 of the molar value.
experimentalReadout: pKd

Field request: pKd | item: DFGYATMAK ≤ 4.70

----------
- testedTarget: HLA-A*26:01
- assayProcedure: IEDB peptide-MHC binding, purified MHC/competitive/radioactivity; filed as Kd, often an IC50 or EC50 that approximates it; bounds were set here for any values at or beyond the usual limits of such assays
- experimentalSetup: source organism: Mammarenavirus brazilense
experimentalReadout: Kd

Field request: Kd | item: GSDDIRRLV ≥ 77.9 µM

----------
- testedTarget: HLA-B*35:01
- assayProcedure: IEDB peptide-MHC binding, purified MHC/competitive/fluorescence; filed as Kd, often an IC50 or EC50 that approximates it; bounds were set here for any values at or beyond the usual limits of such assays
- experimentalSetup: source organism: Yersinia pestis Nepal516
# reported Kd; entries follow

Could you share what Kd was measured for MLMAASRAL , tested on HLA-B*35:01? 47.1 nM

Could you share what Kd was measured for FAFKLSFAI , tested on HLA-B*35:01? 65 nM

----------
# reported IC50; entries follow
- testedTarget: HLA-A*24:02
- assayProcedure: IEDB peptide-MHC binding, purified MHC/competitive/fluorescence; bounds were set here for any values at or beyond the usual limits of such assays
- experimentalSetup: source organism: Variola virus
Value expressed in µM; do not type the unit.

Field request: IC50 | item: RPVVLTGGT 0.104

---
Field request: IC50 | item: LWFNYLFGG 57.8

----------
- testedTarget: HLA-B*58:01
- assayProcedure: IEDB peptide-MHC binding, purified MHC/competitive/fluorescence; bounds were set here for any values at or beyond the usual limits of such assays
- experimentalSetup: source organism: Homo sapiens
experimentalReadout: IC50 (nM)
Value expressed in nM; do not type the unit.

Field request: IC50 | item: KSLTTTMQF 136

----------
- testedTarget: HLA-B*57:01
- assayProcedure: IEDB peptide-MHC binding, purified MHC/competitive/fluorescence; filed as Kd, often an IC50 or EC50 that approximates it; bounds were set here for any values at or beyond the usual limits of such assays
- experimentalSetup: source organism: Burkholderia pseudomallei K96243
experimentalReadout: Kd

Field request: Kd | item: DELWRGLLA ≥ 20 µM

----------
- testedTarget: HLA-A*24:02
- assayProcedure: IEDB peptide-MHC binding, purified MHC/competitive/radioactivity; filed as Kd, often an IC50 or EC50 that approximates it; bounds were set here for any values at or beyond the usual limits of such assays
- experimentalSetup: source organism: Variola virus
pKd: −log10 of the molar value.
experimentalReadout: pKd

Field request: pKd | item: VTDTNKFAHY ≤ 4.15

----------
- testedTarget: HLA-B*40:01
- assayProcedure: IEDB peptide-MHC binding, purified MHC/competitive/radioactivity; filed as Kd, often an IC50 or EC50 that approximates it; bounds were set here for any values at or beyond the usual limits of such assays
- experimentalSetup: source organism: Mammarenavirus machupoense
experimentalReadout: pKd
Field pKd (float): negative decimal logarithm of the concentration in molar.

Field request: pKd | item: EEPAALLPL 5.15

----------
- testedTarget: HLA-B*51:01
- assayProcedure: IEDB peptide-MHC binding, purified MHC/competitive/fluorescence; filed as Kd, often an IC50 or EC50 that approximates it; bounds were set here for any values at or beyond the usual limits of such assays
- experimentalSetup: source organism: Orthomarburgvirus marburgense
experimentalReadout: pKd
Field pKd (float): negative decimal logarithm of the concentration in molar.

Could you share what pKd was measured for VPAWLPLGI , tested on HLA-B*51:01? 6.93

----------
- testedTarget: HLA-B*18:01
- assayProcedure: IEDB peptide-MHC binding, purified MHC/direct/fluorescence; filed as Kd, often an IC50 or EC50 that approximates it; bounds were set here for any values at or beyond the usual limits of such assays
- experimentalSetup: source organism: Vibrio cholerae
experimentalReadout: Kd

Field request: Kd | item: VVYKEAKIK ≥ 20 µM

----------
- testedTarget: HLA-B*48:01
- assayProcedure: IEDB peptide-MHC binding, purified MHC/direct/fluorescence; filed as Kd, often an IC50 or EC50 that approximates it; bounds were set here for any values at or beyond the usual limits of such assays
- experimentalSetup: source organism: Bacillus anthracis
experimentalReadout: Kd

Field request: Kd | item: FTDNNELEF ≥ 20 µM

----------
- testedTarget: HLA-A*29:02
- assayProcedure: IEDB peptide-MHC binding, purified MHC/direct/fluorescence; filed as Kd, often an IC50 or EC50 that approximates it; bounds were set here for any values at or beyond the usual limits of such assays
- experimentalSetup: source organism: Zaire ebolavirus
experimentalReadout: Kd

Field request: Kd | item: LTDRELLLL ≥ 20 µM

----------
- testedTarget: HLA-A*69:01
- assayProcedure: IEDB peptide-MHC binding, purified MHC/competitive/fluorescence; filed as Kd, often an IC50 or EC50 that approximates it; bounds were set here for any values at or beyond the usual limits of such assays
- experimentalSetup: source organism: Shigella boydii CDC 3083-94
pKd: −log10 of the molar value.
experimentalReadout: pKd

Field request: pKd | item: RNNDPTLPY ≤ 4.70

----------
- testedTarget: HLA-B*27:05
- assayProcedure: IEDB peptide-MHC binding, purified MHC/competitive/fluorescence; filed as Kd, often an IC50 or EC50 that approximates it; bounds were set here for any values at or beyond the usual limits of such assays
- experimentalSetup: source organism: Vaccinia virus Copenhagen
experimentalReadout: Kd

Field request: Kd | item: YHRFGLYRL ≥ 20 µM

----------
- testedTarget: HLA-C*07:02
- assayProcedure: IEDB peptide-MHC binding, purified MHC/direct/fluorescence; filed as Kd, often an IC50 or EC50 that approximates it; bounds were set here for any values at or beyond the usual limits of such assays
- experimentalSetup: source organism: Salmonella enterica subsp. enterica serovar Typhi str. CT18
experimentalReadout: pKd
Field pKd (float): negative decimal logarithm of the concentration in molar.

Field request: pKd | item: MMLSPLVAL 6.07

----------
- testedTarget: HLA-A*23:01
- assayProcedure: IEDB peptide-MHC binding, purified MHC/competitive/radioactivity; filed as Kd, often an IC50 or EC50 that approximates it; bounds were set here for any values at or beyond the usual limits of such assays
- experimentalSetup: source organism: Dengue virus 2 Jamaica/1409/1983
experimentalReadout: Kd (µM)
Value expressed in µM; do not type the unit.

Field request: Kd | item: IFITDNVHTW 0.0367

----------
- testedTarget: HLA-B*15:42
- assayProcedure: IEDB peptide-MHC binding, purified MHC/competitive/fluorescence; filed as Kd, often an IC50 or EC50 that approximates it; bounds were set here for any values at or beyond the usual limits of such assays
- experimentalSetup: source organism: human gammaherpesvirus 4
pKd: −log10 of the molar value.
experimentalReadout: pKd

Could you share what pKd was measured for WEMRAGREI , tested on HLA-B*15:42? ≤ 5.30

----------
- testedTarget: HLA-B*15:01
- assayProcedure: IEDB peptide-MHC binding, purified MHC/direct/fluorescence; filed as Kd, often an IC50 or EC50 that approximates it; bounds were set here for any values at or beyond the usual limits of such assays
- experimentalSetup: source organism: Homo sapiens
experimentalReadout: Kd (µM)
Value expressed in µM; do not type the unit.

Field request: Kd | item: EVIPYTPAM 4.76

----------
- testedTarget: HLA-A*31:01
- assayProcedure: IEDB peptide-MHC binding, purified MHC/direct/fluorescence; filed as Kd, often an IC50 or EC50 that approximates it; bounds were set here for any values at or beyond the usual limits of such assays
- experimentalSetup: source organism: Escherichia coli O157:H7
experimentalReadout: Kd

Could you share what Kd was measured for RRNDVARIF , tested on HLA-A*31:01? ≥ 20 µM

---
Could you share what Kd was measured for LPPERRQPF , tested on HLA-A*31:01? ≥ 20 µM

----------
- testedTarget: HLA-A*24:03
- assayProcedure: IEDB peptide-MHC binding, purified MHC/competitive/fluorescence; filed as Kd, often an IC50 or EC50 that approximates it; bounds were set here for any values at or beyond the usual limits of such assays
- experimentalSetup: source organism: Bacillus anthracis str. 'Ames Ancestor'
experimentalReadout: Kd

Field request: Kd | item: MTQNISNDK ≥ 20 µM

----------
- testedTarget: HLA-B*57:01
- assayProcedure: IEDB peptide-MHC binding, purified MHC/competitive/fluorescence; filed as Kd, often an IC50 or EC50 that approximates it; bounds were set here for any values at or beyond the usual limits of such assays
- experimentalSetup: source organism: Shigella boydii CDC 3083-94
pKd: −log10 of the molar value.
experimentalReadout: pKd

Field request: pKd | item: RNNDPTLPY ≤ 4.70
